Listing: IC50 of selected compounds
# System: Marburgvirus
# experiment: Antiviral activity against MARV Popp infected in African green monkey Vero cells assessed as inhibition of viral infection by measuring reduction in virus-induced cytotoxicity incubated for 10 days by neutral red dye based colorimetric analysis
# Type: functional, organism-based
# testSettings: vero; read-out: IC50
Reply with just the number (in µM).

Short answer for `CC1(C)[C@H]2CC[C@]1(C)[C@H](OC(=O)CCN1CCCCC1)C2` : IC50 was 3.7

Alright, here's another compound for you.
Short answer for `CC1(C)[C@H]2CC[C@]1(C)[C@H](OC(=O)CCN1CCCCC1)C2.Cl` : IC50 was 18.1
